target: GMPPNP-loaded KRAS G12C (Homo sapiens, UniProt P01116, G12C); assay: KRAS G12C RAF Disruption Assay (HTRF); settings: recombinant GMPPNP-loaded KRAS G12C (5 nM), 20 min with compound; GST-RAF1 RBD (9 nM); HTRF signal; read-out: KRASG12C RAF Disruption Assay (IC50)
Sequence (P01116 1-188 isoform P01116-2 G12C): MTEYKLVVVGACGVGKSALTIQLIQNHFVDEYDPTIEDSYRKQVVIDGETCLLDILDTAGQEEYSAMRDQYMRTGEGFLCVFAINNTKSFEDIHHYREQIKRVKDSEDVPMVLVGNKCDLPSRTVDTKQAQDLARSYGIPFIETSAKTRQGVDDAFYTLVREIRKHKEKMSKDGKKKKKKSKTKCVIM
pIC50: −log10 of the molar value.
assayReadout: pIC50

Some compounds with known pIC50 results, for comparison:
compound=C#Cc1c(F)ccc2cc(O)cc(-c3ncc4c(N5C[C@H]6CC[C@@H](C5)N6C(=O)/C(F)=C/c5ccccn5)nc(OC[C@@]56CCCN5C[C@H](F)C6)nc4c3F)c12 assaysystem="GMPPNP-loaded KRAS G12C (Homo sapiens, UniProt P01116, G12C)" endpointvalue=7.49
compound=N#CC[C@H]1CN(c2nc(OC[C@@]34CCCN3C[C@H](F)C4)nc3c(F)c(-c4cc(F)ccc4C(F)F)ncc23)CCN1C(=O)/C(F)=C/c1ccccn1 assaysystem="GMPPNP-loaded KRAS G12C (Homo sapiens, UniProt P01116, G12C)" endpointvalue=6.12
compound=C#Cc1c(F)ccc2cccc(-c3ncc4c(N5CCN(C(=O)/C(F)=C/c6ccccn6)C[C@@H]5C)nc(OC[C@@]56CCCN5C[C@H](F)C6)nc4c3F)c12 assaysystem="GMPPNP-loaded KRAS G12C (Homo sapiens, UniProt P01116, G12C)" endpointvalue=7.43
compound=C#Cc1cccc2c(F)ccc(-c3ncc4c(N5CCN(C(=O)/C(F)=C/c6ccccn6)CC5)nc(OC[C@@]56CCCN5C[C@H](F)C6)nc4c3F)c12 assaysystem="GMPPNP-loaded KRAS G12C (Homo sapiens, UniProt P01116, G12C)" endpointvalue=5.80
compound=N#CC[C@H]1CN(c2nc(OC[C@@]34CCCN3C[C@H](F)C4)nc3c(F)c(-c4ccccc4C4CC4)ncc23)CCN1C(=O)/C(F)=C/c1ccccn1 assaysystem="GMPPNP-loaded KRAS G12C (Homo sapiens, UniProt P01116, G12C)" endpointvalue=7.19

(1) Cn1ncc2cccc(-c3ncc4c(N5CCN(C(=O)/C(F)=C/c6nccs6)CC5)nc(OC[C@@]56CCCN5C[C@H](F)C6)nc4c3F)c21
(2) CN1CCC[C@H]1COc1nc(N2CCN(C(=O)/C(F)=C/c3nccs3)CC2)c2cnc(-c3cccc4cccc(Cl)c34)c(F)c2n1
Ask: Kindly compare 1 with 2 and tell me which has the lower pIC50 figure. Please respond with the label that marks your chosen entry.
Result: 1
(1: 5.29, 2: 5.72)

(1) C#Cc1cccc2cccc(-c3ncc4c(N(C)C5CCN(C(=O)/C(F)=C/c6nccs6)C5C)nc(OC[C@@]56CCCN5C[C@H](F)C6)nc4c3F)c12 (single isomer, unassigned) [Example 73 trans isomer 1]
(2) C#Cc1cccc2cccc(-c3ncc4c(N(C)C5CCN(C(=O)/C(F)=C/c6nccs6)C5C)nc(OC[C@@]56CCCN5C[C@H](F)C6)nc4c3F)c12 (single isomer, unassigned) [Example 73 trans isomer 2]
Ask: Which numeric pIC50 is bigger, that of 1 or that of 2 ? Please indicate the selected item by its label.
Result: 1

(a) CN1CCC[C@H]1COc1nc(N2CCN(C(=O)/C(F)=C/c3nccs3)[C@@H](CC#N)C2)c2cnc(-c3cc(O)ccc3F)c(F)c2n1
(b) C#Cc1cccc2cccc(-c3ncc4c(N5CCN(C(=O)/C(F)=C/c6cncc(C)n6)CC5)nc(OC[C@@]56CCCN5C[C@H](F)C6)nc4c3F)c12
Ask: Choose between a and b : whose measured pIC50 value is numerically larger? Answer = label.
Result: a

(a) N#CC[C@H]1CN(c2nc(OC[C@@]34CCCN3C[C@H](F)C4)nc3c(F)c(-c4cc(F)ccc4C(F)(F)F)ncc23)CCN1C(=O)/C(F)=C/c1ccccn1
(b) C#Cc1c(F)ccc2cc(O)cc(-c3ncc4c(N5C[C@H]6CC[C@@H](C5)N6C(=O)/C(F)=C/c5ncccn5)nc(OC[C@@]56CCCN5C[C@H](F)C6)nc4c3F)c12
Ask: Compare pIC50: is it lower for a or for b ? # respond with the chosen item's label
Result: a
